- study.system: UniProt:P19327
- Sequence (P19327 whole entry): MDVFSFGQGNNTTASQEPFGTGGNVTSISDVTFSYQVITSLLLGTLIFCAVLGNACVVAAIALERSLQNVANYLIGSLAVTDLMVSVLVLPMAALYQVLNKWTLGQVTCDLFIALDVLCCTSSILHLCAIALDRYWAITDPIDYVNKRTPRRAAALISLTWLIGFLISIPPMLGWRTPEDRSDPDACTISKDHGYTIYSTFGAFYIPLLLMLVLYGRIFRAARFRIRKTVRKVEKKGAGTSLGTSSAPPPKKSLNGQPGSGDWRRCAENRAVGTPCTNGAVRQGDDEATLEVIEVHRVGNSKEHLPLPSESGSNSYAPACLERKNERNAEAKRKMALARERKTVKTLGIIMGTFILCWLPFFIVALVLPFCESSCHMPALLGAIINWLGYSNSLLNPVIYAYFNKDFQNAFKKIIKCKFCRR
- procedure.summary: Inhibition of 3H-8-OH-DPAT binding to serotonin 5-HT1A receptors in rat brain in vitro
- Parameters: 5-HT1A receptors in membranes from rat brain minus cerebellum; from tissue; host or cells: brain minus cerebellum of male Wistar (Mol:Wist) rats, crude membranes; species or system rat (male Wistar)
- condition.description: 3H 8-OH DPAT binding IC50, 1 nM 3H-8-OH-DPAT, rat brain minus cerebellum membranes, 37° C., 15 min
pIC50: −log10 of the molar value.
measured.property: pIC50

Solved cases below.
compound: CCCN(CCC)CC1CCc2ccc(NC=O)cc21 (stereo not drawn) [Compound 1a]
pIC50: 8.39
//
compound: CCCN(CCC)CC1CCc2ccc(NCc3ccc(F)cc3)cc21 (stereo not drawn)
pIC50: 7.70
//
compound: CC(=O)Nc1ccc2c(c1)C(CN(C)CCN1CCNC1=O)CC2 (stereo not drawn) [Compound 13d]
pIC50: 8.74

[P] CC(=O)Nc1ccc2c(c1)C(CN(C)CCCCc1ccccc1)CC2 (stereo not drawn) [Compound 13b]
[Q] CC(=O)Nc1ccc2c(c1)C(CN(C)CCCN1CCN(c3ccccc3)C1=O)CC2 (stereo not drawn) [Compound 13g]
[R] CCCN(CCC)CC1CCc2ccc(NC(=O)N(C)C)cc21 (stereo not drawn) [Compound 4c]
Ranking field: pIC50; order: falling. Please respond with the labels ordered as the question requires. Q, P, R
